The reported numbers originate from paper PMC4549708.

Collected inhibition at 200 µM values appear next to each entry.
# EXPERIMENTAL_TARGET: NA (H1N1,09) (Influenza A virus, UniProt C3W5S3)
# METHOD: biochemical
# RUN_PARAMETERS: 200 μM of each compound; n = 3, means ± standard deviation; read-out: Inhibition rate (%) NA(H1N1,09)
REPORTED_PROPERTY: inhibition at 200 µM (%)

COMPOUND: CC(=O)O[C@@H]1C(=O)C2=C(C(=O)C[C@H]3C(C)(C)C(=O)CC[C@]23C)[C@]2(C)C(=O)C[C@H]([C@H](C)CC(=O)CC(C)C(=O)O)[C@@]12C (stereo partly shown)
REPORTED_PROPERTY: inhibition at 200 µM
VALUE_UNIT: %
NUMERIC_READOUT: 12.9
--
COMPOUND: C[C@H](CCC=C(CO)CO)[C@H]1CC[C@@]2(C)C3=CC[C@H]4C(C)(C)C(=O)CC[C@]4(C)C3=CC[C@]12C
REPORTED_PROPERTY: inhibition at 200 µM
VALUE_UNIT: %
NUMERIC_READOUT: 52.9
--
COMPOUND: CC(=O)O[C@@H]1C(=O)C2=C([C@@H](O)C[C@H]3C(C)(C)[C@@H](O)CC[C@]23C)[C@]2(C)C(=O)C[C@H]([C@H](C)CC(=O)CC(C)C(=O)O)[C@@]12C (stereo partly shown)
REPORTED_PROPERTY: inhibition at 200 µM
VALUE_UNIT: %
NUMERIC_READOUT: 28.8
--
COMPOUND: C/C(=C\C(=O)CC(C)C(=O)O)[C@H]1CC(=O)[C@@]2(C)C3=C(C(=O)C[C@]12C)[C@@]1(C)CCC(=O)C(C)(C)[C@@H]1CC3=O (stereo partly shown)
REPORTED_PROPERTY: inhibition at 200 µM
VALUE_UNIT: %
NUMERIC_READOUT: 53.1
--
COMPOUND: C/C(=C\C(=O)CC(C)C(=O)O)[C@H]1CC(=O)[C@@]2(C)C3=C(C(=O)C[C@]12C)[C@@]1(C)CC[C@H](O)C(C)(C)[C@@H]1CC3=O (stereo partly shown)
REPORTED_PROPERTY: inhibition at 200 µM
VALUE_UNIT: %
NUMERIC_READOUT: 58
--
COMPOUND: C[C@H](CC[C@H](O)[C@](C)(O)CO)[C@H]1CC[C@@]2(C)C3=CC[C@H]4C(C)(C)C(=O)CC[C@]4(C)C3=CC[C@]12C
REPORTED_PROPERTY: inhibition at 200 µM
VALUE_UNIT: %
NUMERIC_READOUT: 35.3
--
COMPOUND: C[C@H](CC(=O)C[C@@H](C)[C@H]1C[C@H](O)[C@@]2(C)C3=C(C(=O)C[C@]12C)[C@@]1(C)CCC(=O)C(C)(C)[C@@H]1C[C@@H]3O)C(=O)O
REPORTED_PROPERTY: inhibition at 200 µM
VALUE_UNIT: %
NUMERIC_READOUT: 5

###

# EXPERIMENTAL_TARGET: NA (H1N1,09) (Influenza A virus)
# METHOD: biochemical
# RUN_PARAMETERS: 200 μM of each compound; n = 3, means ± standard deviation; read-out: Inhibition rate (%) NA(H1N1,09)

COMPOUND: CC(CC(=O)C[C@@H](C)[C@H]1CC(=O)[C@@]2(C)C3=C(C(=O)[C@@H](O)[C@]12C)[C@@]1(C)CC[C@H](O)C(C)(C)[C@@H]1CC3=O)C(=O)O (some centres unmarked) [Compound 18, Ganoderic acid C6]
EXPERIMENTAL_TARGET: NA (H1N1,09) (Influenza A virus)
VALUE_UNIT: %
inhibition at 200 µM: 17.8
//
COMPOUND: C[C@H](CC(=O)C[C@@H](C)[C@H]1CC(=O)[C@@]2(C)C3=C(C(=O)C[C@]12C)[C@@]1(C)CCC(=O)C(C)(C)[C@@H]1C[C@@H]3O)C(=O)O [Compound 19, Ganoderic acid C1]
EXPERIMENTAL_TARGET: NA (H1N1,09) (Influenza A virus)
VALUE_UNIT: %
inhibition at 200 µM: 21.1
//
COMPOUND: CC(=O)O[C@@H]1C(=O)C2=C(C(=O)C[C@H]3C(C)(C)[C@@H](O)CC[C@]23C)[C@]2(C)C(=O)C[C@H]([C@H](C)CC(=O)CC(C)C(=O)O)[C@@]12C (some centres unmarked) [Compound 13, Ganoderic acid H]
EXPERIMENTAL_TARGET: NA (H1N1,09) (Influenza A virus)
VALUE_UNIT: %
inhibition at 200 µM: 35
//
COMPOUND: C/C(=C\CC[C@@H](C)[C@H]1CC[C@@]2(C)C3=CC[C@H]4C(C)(C)[C@@H](O)CC[C@]4(C)C3=CC[C@]12C)CO [Compound 26, Ganoderol B]
EXPERIMENTAL_TARGET: NA (H1N1,09) (Influenza A virus)
VALUE_UNIT: %
inhibition at 200 µM: 51
//
COMPOUND: C/C(=C\CC[C@@H](C)[C@H]1CC[C@@]2(C)C3=CC[C@H]4C(C)(C)[C@@H](O)CC[C@]4(C)C3=CC[C@]12C)C(=O)O [Compound 6, Ganoderic acid Y]
EXPERIMENTAL_TARGET: NA (H1N1,09) (Influenza A virus)
VALUE_UNIT: %
inhibition at 200 µM: 63

###

# EXPERIMENTAL_TARGET: UniProt:C3W5S3
# METHOD: biochemical
# RUN_PARAMETERS: 200 μM of each compound; n = 3, means ± standard deviation
REPORTED_PROPERTY: Inhibition rate (%) NA(H1N1,09)

MOLECULE: C/C(C=O)=C\CC[C@@H](C)[C@H]1CC[C@@]2(C)C3=CC[C@H]4C(C)(C)[C@@H](O)CC[C@]4(C)C3=CC[C@]12C
REPORTED_PROPERTY: Inhibition rate (%) NA(H1N1,09)
RESULT: 57.6 ± 1.7%

MOLECULE: C/C(=C\C(=O)CC(C)C(=O)O)C1CC(O)C2(C)C3=C(C(=O)CC12C)C1(C)CCC(O)C(C)(C)C1CC3O (stereo not drawn)
REPORTED_PROPERTY: Inhibition rate (%) NA(H1N1,09)
RESULT: 27.9 ± 0.3%

MOLECULE: CC(=O)O[C@H]1C[C@H]([C@H](C)CC/C=C(\C)C(=O)O)[C@@]2(C)CC=C3C(=CC[C@H]4C(C)(C)[C@@H](O)CC[C@]34C)[C@]12C
REPORTED_PROPERTY: Inhibition rate (%) NA(H1N1,09)
RESULT: 72.0 ± 5.5%

MOLECULE: C/C(=C/CC[C@@H](C)[C@H]1CC[C@@]2(C)C3=CC[C@H]4C(C)(C)C(=O)CC[C@]4(C)C3=CC[C@]12C)C(=O)O
REPORTED_PROPERTY: Inhibition rate (%) NA(H1N1,09)
RESULT: 60.1 ± 4.8%

MOLECULE: C/C(=C\[C@@H](O)C[C@@H](C)[C@H]1CC(=O)[C@@]2(C)C3=C(C(=O)C[C@]12C)[C@@]1(C)CC[C@H](O)C(C)(C)[C@@H]1CC3=O)C(=O)O
REPORTED_PROPERTY: Inhibition rate (%) NA(H1N1,09)
RESULT: 35.9 ± 5.3%

MOLECULE: CC(=O)O[C@H]1C[C@H]([C@H](C)CC/C=C(\C)C(=O)O)[C@@]2(C)CC=C3C(=CC[C@H]4C(C)(C)C(=O)CC[C@]34C)[C@]12C
REPORTED_PROPERTY: Inhibition rate (%) NA(H1N1,09)
RESULT: 81.7 ± 1.7%

###

# METHOD: in vitro
# RUN_PARAMETERS: human
REPORTED_PROPERTY: CC50

MOLECULE: C/C(C=O)=C\CC[C@@H](C)[C@H]1CC[C@@]2(C)C3=C(CC[C@]12C)[C@@]1(C)CCC(=O)C(C)(C)[C@@H]1CC3=O
REPORTED_PROPERTY: CC50
RESULT: 7.1 µM
//
MOLECULE: CC(CC(=O)C[C@@H](C)[C@H]1CC(=O)[C@@]2(C)C3=C(C(=O)[C@@H](O)[C@]12C)[C@@]1(C)CC[C@H](O)C(C)(C)[C@@H]1CC3=O)C(=O)O (stereo partly shown)
REPORTED_PROPERTY: CC50
RESULT: > 200 µM
//
MOLECULE: C/C(=C\C(=O)CC(C)C(=O)O)[C@H]1C[C@H](O)[C@@]2(C)C3=C(C(=O)C[C@]12C)[C@@]1(C)CCC(=O)C(C)(C)[C@@H]1C[C@@H]3O (stereo partly shown)
REPORTED_PROPERTY: CC50
RESULT: > 200 µM
//
MOLECULE: C/C(=C/CC[C@@H](C)[C@H]1CC[C@@]2(C)C3=CC[C@H]4C(C)(C)C(=O)CC[C@]4(C)C3=CC[C@]12C)C(=O)O
REPORTED_PROPERTY: CC50
RESULT: 80.9 µM
//
MOLECULE: CC(=O)O[C@@H]1C(=O)C2=C(C(=O)C[C@H]3C(C)(C)C(=O)CC[C@]23C)[C@]2(C)C(=O)C[C@H]([C@H](C)CC(=O)CC(C)C(=O)O)[C@@]12C (stereo partly shown)
REPORTED_PROPERTY: CC50
RESULT: > 200 µM
//
MOLECULE: C[C@H](CC[C@H](O)[C@](C)(O)CO)[C@H]1CC[C@@]2(C)C3=CC[C@H]4C(C)(C)C(=O)CC[C@]4(C)C3=CC[C@]12C
REPORTED_PROPERTY: CC50
RESULT: > 200 µM
//
MOLECULE: C/C(=C\C(=O)CC(C)C(=O)O)[C@H]1CC(=O)[C@@]2(C)C3=C(C(=O)C[C@]12C)[C@@]1(C)CCC(=O)C(C)(C)[C@@H]1CC3=O (stereo partly shown)
REPORTED_PROPERTY: CC50
RESULT: 111 µM
//
MOLECULE: C/C(=C\CC[C@@H](C)[C@H]1CC[C@@]2(C)C3=CC[C@H]4C(C)(C)[C@@H](O)CC[C@]4(C)C3=CC[C@]12C)C(=O)O
REPORTED_PROPERTY: CC50
RESULT: 18 µM
//
MOLECULE: C[C@H](CC[C@H](O)C(C)(C)O)[C@H]1CC[C@@]2(C)C3=CC[C@H]4C(C)(C)C(=O)CC[C@]4(C)C3=CC[C@]12C
REPORTED_PROPERTY: CC50
RESULT: 64.9 µM
//
MOLECULE: C/C(=C\C(=O)CC(C)C(=O)O)[C@H]1CC(=O)[C@@]2(C)C3=C(C(=O)C[C@]12C)[C@@]1(C)CC[C@H](O)C(C)(C)[C@@H]1CC3=O (stereo partly shown)
REPORTED_PROPERTY: CC50
RESULT: > 200 µM
